Values were extracted from patent US6130215A.

# measured on: 5-HT2C receptor (Sus scrofa)
# Sequence (K7GSR7 1-457): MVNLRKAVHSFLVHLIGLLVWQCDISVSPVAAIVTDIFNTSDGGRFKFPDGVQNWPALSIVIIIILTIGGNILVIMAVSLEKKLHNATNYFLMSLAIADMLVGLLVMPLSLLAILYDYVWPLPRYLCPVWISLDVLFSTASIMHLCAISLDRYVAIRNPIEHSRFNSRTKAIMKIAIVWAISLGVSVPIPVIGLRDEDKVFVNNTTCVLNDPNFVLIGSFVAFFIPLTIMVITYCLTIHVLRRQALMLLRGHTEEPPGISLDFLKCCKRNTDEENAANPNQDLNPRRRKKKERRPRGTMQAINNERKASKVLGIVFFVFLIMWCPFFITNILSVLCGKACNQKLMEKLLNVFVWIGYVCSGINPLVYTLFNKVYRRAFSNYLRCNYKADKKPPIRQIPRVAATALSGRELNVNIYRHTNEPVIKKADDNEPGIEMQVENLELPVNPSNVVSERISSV
test readout: Ki (µM)
Value expressed in µM; do not type the unit.

Worked examples follow.
>>> test_value("Nc1nc(SCCN2CCN(Cc3ccccc3Cl)CC2)nc(N)c1Cc1ccccc1 [Example 13]")
0.012
>>> test_value("COc1cc(Cc2c(N)nc(SCCN3CCN(Cc4cccc(C(F)(F)F)c4)CC3)nc2N)cc(OC)c1OC [Example 69]")
0.026
>>> test_value("CN(C)c1ccc(Cc2c(N)nc(SCCN3CCN(Cc4cccc(Cl)c4)CC3)nc2N)cc1 [Example 56]")
0.057
>>> test_value("COc1cccc(CN2CCN(CCSc3nc(N)c(Cc4ccccc4)c(N)n3)CC2)c1 [Example 12]")
0.047
>>> test_value("COc1cccc(CN2CCN(CCSc3nc(N)c(Cc4ccccc4OC)c(N)n3)CC2)c1 [Example 31]")
0.021

stdin: Supply reported Ki belonging to this compound: CN(C)c1ccc(Cc2c(N)nc(SCCN3CCN(Cc4ccc([N+](=O)[O-])cc4)CC3)nc2N)cc1 [Example 57]
stdout: 0.042
